Several reports have described IC50 for UniProt:P50750; a selection of those results is presented here.
Sequence (P50750 whole entry): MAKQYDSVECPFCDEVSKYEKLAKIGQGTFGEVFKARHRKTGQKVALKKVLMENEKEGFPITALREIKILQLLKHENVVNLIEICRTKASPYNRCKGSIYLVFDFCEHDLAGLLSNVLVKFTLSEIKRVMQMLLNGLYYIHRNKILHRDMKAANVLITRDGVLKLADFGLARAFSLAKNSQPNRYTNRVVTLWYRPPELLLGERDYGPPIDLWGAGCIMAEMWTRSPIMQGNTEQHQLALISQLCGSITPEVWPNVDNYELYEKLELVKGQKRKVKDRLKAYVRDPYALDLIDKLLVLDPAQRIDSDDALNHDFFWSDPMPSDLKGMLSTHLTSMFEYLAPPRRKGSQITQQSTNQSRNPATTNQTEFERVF

Example compounds with recorded IC50:
Task: # get_value(readout= IC50, system= UniProt:P50750) for Cc1cc(-c2cnc(Nc3ccccn3)s2)nc(OC2CCCCC2)n1
Output: > 10000 nM

Task: Request - read-out IC50 | tested on UniProt:P50750 | compound Nc1nc(NCCc2ccccc2)nc(-c2cc(Cl)ccc2O)n1
Output: 504 nM

Others:
Task: What value of IC50 on UniProt:P50750 does O=C(Nc1ccc(NC(=O)c2ccccn2)cc1)c1cccc(-c2c[nH]c(=O)[nH]c2=O)c1 have?
Output: > 30000 nM

Task: # get_value(readout= IC50, system= UniProt:P50750) for CCOc1ccccc1CNc1nc(C)nc2[nH]cc(-c3ccnc(N)c3)c12
Output: 10 nM

Task: What is its IC50 for UniProt:P50750? Entry: COc1cc(/C=C2\S/C(=N/c3ccc(C)c(C)c3)NC2=O)ccc1OCc1ccc2ccccc2c1
Output: > 10000 nM
